EXPERIMENTAL SYSTEM: T1, GLP-1R (INS1e assay) (UniProt P32301 22-463, limits assumed)
T1 sequence (looked up): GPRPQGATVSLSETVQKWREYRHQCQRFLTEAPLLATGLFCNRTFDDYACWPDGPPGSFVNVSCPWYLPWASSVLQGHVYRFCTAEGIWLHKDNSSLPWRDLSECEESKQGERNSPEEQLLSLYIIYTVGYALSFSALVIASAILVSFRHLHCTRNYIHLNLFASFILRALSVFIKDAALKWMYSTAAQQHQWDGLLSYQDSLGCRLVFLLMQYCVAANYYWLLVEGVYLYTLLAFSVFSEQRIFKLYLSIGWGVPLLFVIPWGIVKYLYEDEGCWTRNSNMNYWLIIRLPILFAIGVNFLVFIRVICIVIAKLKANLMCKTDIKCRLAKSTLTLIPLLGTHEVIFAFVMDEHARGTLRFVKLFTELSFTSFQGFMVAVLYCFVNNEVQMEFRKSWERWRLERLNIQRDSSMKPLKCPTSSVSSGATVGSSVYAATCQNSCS
PROTOCOL NOTES: cell-based or functional assay
Starred links: 1 amine or outer side, 2 acyl side, 3 side chain; linkers in the order of their positions; H or OH if unused. Non-standard residues stand in square brackets, D forms with d. Groups on a side chain read outwards from the residue. Primed or numbered codes have the meaning given here. No end group written: not given here. *: point of attachment. γGlu = O=C(O)[C@H](CCC(=O)[*:2])N[*:1]; Stearoyl = CCCCCCCCCCCCCCCCCC(=O)*; αMeF = C[C@](N)(Cc1ccccc1)C(=O)O; αMeK = C[C@](N)(CCCCN)C(=O)O; αMeS = C[C@](N)(CO)C(=O)O; PEG2′ = not defined here; Aib = CC(C)(N)C(=O)O
MEASURED QUANTITY: INS1e assay EC50 Mean pM GLP-1R (pM)

{"columns": ["BINDER", "INS1e assay EC50 Mean pM GLP-1R, pM"],
 "data": [
  ["H[Aib]EGS[αMeF]TSDV[αMeS]S[αMeF]LEGEAAK([PEG2′-PEG2′-PEG2′-Stearoyl])EFIA[αMeF]VV[αMeK]GG-NH2 [SEQ ID NO 54]", 6]
]}

a = H[Aib]EGS[αMeF]TSDV[αMeS]SYLEGEAAK([PEG2′-PEG2′-PEG2′-Stearoyl])E[αMeF]IA[αMeF]VV[αMeK]GG-NH2 [SEQ ID NO 53]
b = H[Aib]EGS[αMeF]TSDV[αMeS]K([PEG2′-PEG2′-γGlu-Stearoyl])[αMeF]LEGEAA[αMeK]E[αMeF]IA[αMeF]VV[αMeK]GG-NH2 [SEQ ID NO 117]
c = H[Aib]EGS[αMeF]TSDV[αMeS]S[αMeF]LEGEAA[αMeK]E[αMeF]IA[αMeF]VVK([PEG2′-PEG2′-PEG2′-Stearoyl])GG-NH2 [SEQ ID NO 190]
Request: Reorder: INS1e assay EC50 Mean pM GLP-1R, max to min. State the ranking by listing the labels in the requested order.
Result: b, c, a
(b: 1220 pM, c: 44.1 pM, a: 7 pM)
